# Tested on: Mycobacterium tuberculosis
# run.description: Antitubercular activity against Mycobacterium tuberculosis H37Rv ATCC 27294 after 28 days by agar dilution method
# Assay type: functional
# test.conditions: H37Rv ATCC 27294, 672 h
Flag rule - MIC less than 30 µM flags satisfied; the remaining entries get not satisfied.

# compound, class.assignment
rows = [
    ("COc1ccc2cc(-c3cn(C(C)c4ccc5sc6ccccc6c5c4)nn3)ccc2c1 (stereo unspecified)", "satisfied"),
    ("CCCc1cn(C(C)c2ccc3c(c2)c2ccccc2n3C)nn1 (stereo unspecified)", "not satisfied"),
    ("CC(c1ccc2oc3ccccc3c2c1)n1cc(-c2ccc(C(C)(C)C)cc2)nn1 (stereo unspecified)", "satisfied"),
    ("CC(c1ccc2c(c1)c1ccccc1n2C)n1cc(-c2ccccc2)nn1 (stereo unspecified)", "not satisfied"),
]

-- ask Please indicate whether the reported MIC of CCCCCCc1cn(C(C)c2ccc3sc4ccccc4c3c2)nn1 (stereo unspecified) is strictly below 30 µM.
-- reply satisfied

-- ask For this compound, is MIC lower than 30 µM? CC(c1ccc2sc3ccccc3c2c1)n1cc(CCc2ccccc2)nn1 (stereo unspecified)
-- reply satisfied

###

# System: A549
# run.description: Cytotoxicity against human A549 cells after 48 hrs after MTT assay
# Assay type: cell-based
# test.conditions: A549, 48 h
Quick reference: pIC50 of the listed items.
# pIC50 is unitless: minus log10 of the molar concentration; print number only

Example entries and their recorded answers appear below.
# compound, pIC50
records = [
    ("CC(c1ccc2sc3ccccc3c2c1)n1cc(-c2ccccc2)nn1 (stereo not given)", 3.35),
    ("CC(c1ccc2sc3ccccc3c2c1)n1cc(-c2ccccc2[N+](=O)[O-])nn1 (stereo not given)", 3.72),
    ("CCCCc1cn(C(C)c2ccc3sc4ccccc4c3c2)nn1 (stereo not given)", 4.10),
    ("CC(c1ccc2sc3ccccc3c2c1)n1cc(-c2ccc([N+](=O)[O-])cc2)nn1 (stereo not given)", 3.07),
]

Looking up CC(c1ccc2sc3ccccc3c2c1)n1cc(CCc2ccccc2)nn1 (stereo not given) , I found its pIC50 recorded as 4.11

###

# Test system: DU-145
# run.description: Cytotoxicity against human DU145 cells after 48 hrs after MTT assay
# Format: cell-based
# test.conditions: DU-145, 48 h
Rule: IC50 below 100 µM gives true (1), anything at or above gives false (0).

These solved cases illustrate the format of a correct answer.
# compound, target.or.system, class.assignment
data = [
    ("CC(c1ccc2sc3ccccc3c2c1)n1cc(-c2ccc([N+](=O)[O-])cc2)nn1 (centres undefined)", "DU-145", "false (0)"),
    ("CC(c1ccc2sc3ccccc3c2c1)n1cc(-c2ccc(Br)cc2F)nn1 (centres undefined)", "DU-145", "false (0)"),
    ("CC(c1ccc2sc3ccccc3c2c1)n1cc(-c2ccc(F)cc2Cl)nn1 (centres undefined)", "DU-145", "false (0)"),
]

-- ask Hi there! Is IC50 for CCCCc1cn(C(C)c2ccc3sc4ccccc4c3c2)nn1 (centres undefined) below 100 µM, do you know?
-- reply false (0)

-- ask Lab log: compare recorded IC50 with 100 µM; is it strictly lower for CC(c1ccc2sc3ccccc3c2c1)n1cc(-c2ccccc2)nn1 (centres undefined) ?
-- reply true (1)

-- ask I wonder whether Cc1ccc(-c2cn(C(C)c3ccc4sc5ccccc5c4c3)nn2)cc1 (centres undefined) has IC50 below 100 µM. Can you tell?
-- reply false (0)

-- ask Bench note: check whether CC(c1ccc2sc3ccccc3c2c1)n1cc(COCc2ccccc2)nn1 (centres undefined) shows IC50 below 100 µM
-- reply false (0)

-- ask # strict comparison: is reported IC50 < 100 µM? input = CC(c1ccc2sc3ccccc3c2c1)n1cc(-c2ccc(C(C)(C)C)cc2)nn1 (centres undefined)
-- reply false (0)

-- ask Dear reviewer, please state whether CC(c1ccc2sc3ccccc3c2c1)n1cc(-c2ccc(Cl)cc2Cl)nn1 (centres undefined) has IC50 strictly beneath 100 µM.
-- reply false (0)

-- ask Does this compound meet the criterion IC50 < 100 µM? CC(c1ccc2sc3ccccc3c2c1)n1cc(-c2ccccc2[N+](=O)[O-])nn1 (centres undefined)
-- reply false (0)

-- ask Consider CC(c1ccc2sc3ccccc3c2c1)n1cc(-c2cc(F)cc(F)c2Cl)nn1 (centres undefined) . Does its IC50 lie strictly below 100 µM?
-- reply false (0)

-- ask Please let me know if CCCc1cn(C(C)c2ccc3sc4ccccc4c3c2)nn1 (centres undefined) shows IC50 below 100 µM.
-- reply true (1)

-- ask Here's an entry: CC(c1ccc2sc3ccccc3c2c1)n1cc(-c2cc(F)ccc2F)nn1 (centres undefined) . Is its IC50 below 100 µM?
-- reply false (0)

###

# System: Mycobacterium tuberculosis
# run.description: Antitubercular activity against Mycobacterium tuberculosis H37Rv ATCC 27294 after 28 days by agar dilution method
# Format: functional
# test.conditions: H37Rv ATCC 27294, 672 h
Below is a list of entries, each paired with its recorded MIC value.
State the answer as a number, implicitly in µM.

# compound, target.or.system, units.symbol, MIC
data = [
    ("CC(c1ccc2c(c1)c1ccccc1n2C)n1cc(CO)nn1 (configuration not stated)", "Mycobacterium tuberculosis", "µM", 81.7),
]

Shifting focus to the compound that follows.
Noted for CC(c1ccc2sc3ccccc3c2c1)n1cc(-c2ccc(Cl)cc2Cl)nn1 (configuration not stated) : its MIC reads 3.68

###

Here the recorded log10 MIC is given for each entry.
# System: Mycobacterium tuberculosis
# run.description: Antitubercular activity against Mycobacterium tuberculosis H37Rv ATCC 27294 after 28 days by agar dilution method
# Format: functional
# test.conditions: H37Rv ATCC 27294, 672 h
Hi team, quick reminder: these entries are log10 of MIC (µM).

molecule CCCCc1cn(C(C)c2ccc3sc4ccccc4c3c2)nn1 (stereo not given) , log10 MIC observed: 0.67

###

# Tested on: Mycobacterium tuberculosis
# run.description: Antitubercular activity against Mycobacterium tuberculosis H37Rv ATCC 27294 after 28 days by agar dilution method
# Type: functional
# test.conditions: H37Rv ATCC 27294, 672 h
experimental.readout: MIC (µM)
Record the value in µM, omitting the unit from your answer.

# MIC (molecule: CCCCCCc1cn(C(C)c2ccc3c(c2)c2ccccc2n3C)nn1 (centres undefined) ) is 70

For CCCc1cn(C(C)c2ccc3sc4ccccc4c3c2)nn1 (centres undefined) the molecule record lists MIC as 9.75

Lab note: measured MIC of NC(=O)c1cnccn1 [PYRAZINAMIDE] was 50.1

Record summary for NNC(=O)c1ccncc1 [ISONIAZID] : reported MIC = 0.37

Cited source for all entries: ChEMBL document CHEMBL2046404
